# credit: the supplement of paper PMC10567573

Exercise: for every item that follows, state its recorded protein stability index.
B1: KCTD10 (parent)
chain: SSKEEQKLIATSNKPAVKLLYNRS

- Variants of: B1
- test.details: protein stability index of a GFP-peptide fusion (GPS, HEK-293T) (PSI 1-6); higher = more stable;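 further: lentivirally expressed fusions sorted by FACS into six bins by GFP to DsRed ratio, PSI derived from sequencing read proportions per bin multiplied by bin number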
- condition: c terminus: a fixed tail appended
Numbers only.

Sample records with protein stability index:
Ask: Fill in the blank: the reported protein stability index of SIKEEQKLIATSNKPAVKLLYNRS [S2I] is ____.
Result: 3.88

Ask: Fill in the blank: the reported protein stability index of SSKEEQKLIATSNKPAVKLLYNRT [S24T] is ____.
Result: 4.21

Ask: Fill in the blank: the reported protein stability index of SSKEERKLIATSNKPAVKLLYNRS [Q6R] is ____.
Result: 3.93

Ask: Fill in the blank: the reported protein stability index of GSKEEQKLIATSNKPAVKLLYNRS [S1G] is ____.
Result: 3.96

Value sought for every listed variant: protein stability index.
1. SSKEEQKLIATSNKPAVKLLYGRS [N22G]
2. SSKEEQKLINTSNKPAVKLLYNRS [A10N]
3. RSKEEQKLIATSNKPAVKLLYNRS [S1R]

Result:
1. 4
2. 4.41
3. 3.8

Value sought for every listed variant: protein stability index.
1. SSKEDQKLIATSNKPAVKLLYNRS [E5D]
2. SSKEEQKLIATSNKPGVKLLYNRS [A16G]
3. SSKEEQKLIATSNKAAVKLLYNRS [P15A]
4. SSKEKQKLIATSNKPAVKLLYNRS [E5K]

Result:
[4.13, 3.79, 3.54, 3.35]

Value sought for every listed variant: protein stability index.
1. SSKEEQKLIATSNKPAVKNLYNRS [L19N]
2. SSKEEQKLIATSNKPAGKLLYNRS [V17G]
3. SSKEEQKLIATSNKPAVKLLYIRS [N22I]
4. SWKEEQKLIATSNKPAVKLLYNRS [S2W]
5. SSKEEQKLIATSNKPAVKLLYNSS [R23S]
6. SSKTEQKLIATSNKPAVKLLYNRS [E4T]

Result:
1. 4.72
2. 4.3
3. 2.71
4. 3.26
5. 4.13
6. 3.26

Value sought for every listed variant: protein stability index.
1. SSKNEQKLIATSNKPAVKLLYNRS [E4N]
2. SSKEEQKLIATSNKHAVKLLYNRS [P15H]
3. SSKEHQKLIATSNKPAVKLLYNRS [E5H]
4. SSKEEQKLIATRNKPAVKLLYNRS [S12R]
5. SSKEEQKLIATSNKPAKKLLYNRS [V17K]
6. SSKEEQKLIATYNKPAVKLLYNRS [S12Y]

Result:
3.87
3.86
3.78
4.02
4.61
3.38
